Values were extracted from ChEMBL document CHEMBL3046597.

- SYSTEM TESTED: Juvenile hormone esterase (Trichoplusia ni, UniProt P30809+P30810)
- Sequence (P30809 whole entry): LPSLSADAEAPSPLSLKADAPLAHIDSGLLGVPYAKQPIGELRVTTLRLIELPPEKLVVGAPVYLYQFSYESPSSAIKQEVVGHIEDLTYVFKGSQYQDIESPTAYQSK
- Sequence (P30810 whole entry): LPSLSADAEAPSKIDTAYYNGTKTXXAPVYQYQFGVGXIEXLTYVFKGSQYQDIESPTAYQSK
- MEASUREMENT PROTOCOL: Inhibition of Trichoplusia ni (cabbage looper) juvenile hormone esterase isolated from fifth-intsar larval stage using [3H]JH 3 as substrate incubated for 10 min prior to substrate addition measured after 15 min by liquid scintillation counting
- Type: protein assay
PROPERTY: IC50 (nM)

(1) CCCCCCS(=O)(=O)CC(O)(O)C(F)(F)F
(2) CCCCCCCCCCS(=O)(=O)CC(O)(O)C(F)(F)F
(3) CCCCCCCCCCCCSCC(=O)C(F)(F)F
(4) CCCCCCCCCCCCS(=O)(=O)CC(O)(O)C(F)(F)F
(5) O=S(=O)(CCc1ccccc1)CC(O)(O)C(F)(F)F
Prompt: Could you please order the items by IC50, going from the lowest number to the highest? // respond by listing labels in the order requested
Completion: 3, 2, 4, 1, 5

====

- SYSTEM TESTED: Liver carboxylesterase (Sus scrofa, UniProt Q29550)
- Sequence (Q29550 whole entry): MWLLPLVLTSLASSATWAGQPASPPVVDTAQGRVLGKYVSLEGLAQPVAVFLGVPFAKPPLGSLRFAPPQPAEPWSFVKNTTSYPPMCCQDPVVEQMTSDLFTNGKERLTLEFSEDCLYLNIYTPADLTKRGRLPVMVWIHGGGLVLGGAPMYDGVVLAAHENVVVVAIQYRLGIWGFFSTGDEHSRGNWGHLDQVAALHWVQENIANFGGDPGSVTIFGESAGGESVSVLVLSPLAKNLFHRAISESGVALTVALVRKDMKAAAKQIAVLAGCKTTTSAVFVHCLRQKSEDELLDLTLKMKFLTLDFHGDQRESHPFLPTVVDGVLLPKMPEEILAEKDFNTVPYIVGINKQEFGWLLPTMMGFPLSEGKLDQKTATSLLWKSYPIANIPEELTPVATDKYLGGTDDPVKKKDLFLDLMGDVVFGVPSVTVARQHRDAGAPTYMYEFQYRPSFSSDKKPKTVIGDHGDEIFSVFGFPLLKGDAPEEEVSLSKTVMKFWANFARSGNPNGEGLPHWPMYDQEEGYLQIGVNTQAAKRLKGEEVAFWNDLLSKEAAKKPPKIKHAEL
- MEASUREMENT PROTOCOL: Inhibition of Sus scrofa (pig) carboxylesterase isolated from liver in using p-nitrophenyl acetate as substrate incubated for 5 min prior to substrate addition measured for 2 min by spectrophotometric analysis
PROPERTY: IC50 (nM)

CCCCCCCCCCS(=O)(=O)CC(O)(O)C(F)(F)F    1420
CCCCCCCCCCCCS(=O)(=O)CC(O)(O)C(F)(F)F    473
CCCCCCS(=O)(=O)CC(O)(O)C(F)(F)F    39000
CCCCCCCCSCC(=O)C(F)(F)F    36.8
O=S(=O)(CCc1ccccc1)CC(O)(O)C(F)(F)F    3390
O=C(CSCCc1ccccc1)C(F)(F)F    75.3

(a) CCCCCCSCC(=O)C(F)(F)F
(b) CCCCCCCCCCCCSCC(=O)C(F)(F)F
(c) CCCCCCCCS(=O)(=O)CC(O)(O)C(F)(F)F
Prompt: List from greatest to least IC50. // respond by listing labels in the order requested
Completion: c, b, a
(c: 5640 nM, b: 119 nM, a: 54.3 nM)

====

Entries with their measured IC50, system Liver carboxylesterase B-1 (Rattus norvegicus, UniProt Q63010):
PROPERTY: IC50 (nM)

# annotated cases, reported IC50 shown
O=S(=O)(CCc1ccccc1)CC(O)(O)C(F)(F)F    1500
O=C(CSCCc1ccccc1)C(F)(F)F    162
CCCCCCCCSCC(=O)C(F)(F)F    37.2
CCCCCCCCCCSCC(=O)C(F)(F)F    115

(I) CCCCCCCCCCS(=O)(=O)CC(O)(O)C(F)(F)F
(II) CCCCCCSCC(=O)C(F)(F)F
Prompt: Given I and II , report the one with the higher recorded IC50. Identify your pick by its label.
Completion: II
(II: 54.6 nM, I: 6.3 nM)
